- Test system: monocytes (monocyte-lin)
- method: MLTA, Mono: concentration-response and QSP model fit
- Assay type: cell-based, human
- setupConditions: Homo sapiens, Monocyte, 144 h; dose 0.2 nM, 6 days, normalized to vehicle control; read-out: Mon normalized cell count
Answer each item with its documented activity at 0.0002 µM.

The examples below pair each entry with its known result.
querysmiles=CCc1cnn2c(NCc3ccc[n+]([O-])c3)cc(N3CCCC[C@H]3CCO)nc12 measurementname="activity at 0.0002 µM" testvalue=90.7%
querysmiles=CS(=O)(=O)N1CCN(Cc2cc3nc(-c4cccc5[nH]ncc45)nc(N4CCOCC4)c3s2)CC1 measurementname="activity at 0.0002 µM" testvalue=92.5%
querysmiles=CC(=O)c1c(C)c2cnc(Nc3ccc(N4CCNCC4)cn3)nc2n(C2CCCC2)c1=O measurementname="activity at 0.0002 µM" testvalue=90%

As a next step, examine the compound that follows.
Q: Short answer please: activity at 0.0002 µM, monocytes (monocyte-lin), entry CC(=O)O[C@H]1C(=O)[C@@]2(C)[C@H]([C@H](OC(=O)c3ccccc3)[C@]3(O)C[C@H](OC(=O)[C@H](O)[C@@H](NC(=O)c4ccccc4)c4ccccc4)C(C)=C1C3(C)C)[C@]1(OC(C)=O)CO[C@@H]1C[C@@H]2O
Ans: 90.9%
